Where these numbers come from: patent US5387602A

List of % INHIBITION 5-LO (Procedure II) values.
tested_target: RBL-1 Cell 5-Lipoxygenase (Rattus norvegicus)
Construct: the supernatant was saved as the source of enzymes; endogenous in cells; host or cells: RBL-1 (rat basophilic leukemia cells), 10,000×g supernatant of homogenate
Sequence (P12527 whole entry): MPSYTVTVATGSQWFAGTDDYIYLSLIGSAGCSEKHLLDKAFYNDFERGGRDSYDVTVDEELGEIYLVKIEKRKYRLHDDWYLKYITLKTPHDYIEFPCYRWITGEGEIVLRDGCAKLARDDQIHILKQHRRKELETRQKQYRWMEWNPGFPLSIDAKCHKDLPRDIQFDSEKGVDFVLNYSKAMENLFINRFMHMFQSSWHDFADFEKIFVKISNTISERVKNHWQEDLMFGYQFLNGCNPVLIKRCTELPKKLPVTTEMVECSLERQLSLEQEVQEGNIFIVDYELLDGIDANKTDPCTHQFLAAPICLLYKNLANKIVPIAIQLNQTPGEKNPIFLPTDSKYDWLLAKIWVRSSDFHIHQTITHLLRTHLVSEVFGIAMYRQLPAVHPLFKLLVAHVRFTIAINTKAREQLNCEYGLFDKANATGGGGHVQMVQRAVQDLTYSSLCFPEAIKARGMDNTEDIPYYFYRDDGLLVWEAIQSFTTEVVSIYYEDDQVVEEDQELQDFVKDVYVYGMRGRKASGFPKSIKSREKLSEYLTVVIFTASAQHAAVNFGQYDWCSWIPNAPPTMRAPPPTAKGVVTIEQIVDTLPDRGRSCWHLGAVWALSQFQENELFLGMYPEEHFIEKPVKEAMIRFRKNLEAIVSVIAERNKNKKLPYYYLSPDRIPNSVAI
assay_summary: Procedure II: 5-lipoxygenase inhibition in disrupted RBL-1 cells (supernatant as enzyme source)
Type: biochemical

[
  {
    "input_smiles": "COc1ccc(-n2nc(COC(=O)NO)c(Br)c2-c2ccc(C)cc2)cc1",
    "% INHIBITION 5-LO (Procedure II), %": 63
  },
  {
    "input_smiles": "COc1ccc(-n2nc(CCCOC(=O)N(O)C(C)C)c(Br)c2-c2ccc(Cl)cc2)cc1",
    "% INHIBITION 5-LO (Procedure II), %": 80
  },
  {
    "input_smiles": "COc1ccc(-n2nc(COC(=O)N(C)O)c(Cl)c2-c2ccc(Cl)cc2)cc1",
    "% INHIBITION 5-LO (Procedure II), %": 83
  },
  {
    "input_smiles": "COc1ccc(-n2nc(CCOC(=O)N(C)O)cc2-c2ccc(C)cc2)cc1",
    "% INHIBITION 5-LO (Procedure II), %": 82
  },
  {
    "input_smiles": "COc1ccc(-n2nc(COC(=O)N(C)O)c(Br)c2-c2ccc(C)cc2)cc1",
    "% INHIBITION 5-LO (Procedure II), %": 74
  },
  {
    "input_smiles": "COc1ccc(-n2nc(CCOC(=O)N(O)C(C)C)cc2-c2ccc(C)cc2)cc1",
    "% INHIBITION 5-LO (Procedure II), %": 83
  },
  {
    "input_smiles": "COc1ccc(-n2nc(CCOC(=O)N(O)C(C)C)c(Br)c2-c2ccc(Cl)cc2)cc1",
    "% INHIBITION 5-LO (Procedure II), %": 71
  },
  {
    "input_smiles": "COc1ccc(-n2nc(CCCOC(=O)N(O)C(C)C)cc2-c2ccc(Cl)cc2)cc1",
    "% INHIBITION 5-LO (Procedure II), %": 80
  },
  {
    "input_smiles": "COc1ccc(-n2nc(COC(=O)N(C)O)cc2-c2ccc(Cl)cc2)cc1",
    "% INHIBITION 5-LO (Procedure II), %": 85
  }
]
